molecular target: Hepatocyte Growth Factor (HGF), human (human, UniProt P14210 32-728); assay: ELISA
Sequence (P14210 32-728): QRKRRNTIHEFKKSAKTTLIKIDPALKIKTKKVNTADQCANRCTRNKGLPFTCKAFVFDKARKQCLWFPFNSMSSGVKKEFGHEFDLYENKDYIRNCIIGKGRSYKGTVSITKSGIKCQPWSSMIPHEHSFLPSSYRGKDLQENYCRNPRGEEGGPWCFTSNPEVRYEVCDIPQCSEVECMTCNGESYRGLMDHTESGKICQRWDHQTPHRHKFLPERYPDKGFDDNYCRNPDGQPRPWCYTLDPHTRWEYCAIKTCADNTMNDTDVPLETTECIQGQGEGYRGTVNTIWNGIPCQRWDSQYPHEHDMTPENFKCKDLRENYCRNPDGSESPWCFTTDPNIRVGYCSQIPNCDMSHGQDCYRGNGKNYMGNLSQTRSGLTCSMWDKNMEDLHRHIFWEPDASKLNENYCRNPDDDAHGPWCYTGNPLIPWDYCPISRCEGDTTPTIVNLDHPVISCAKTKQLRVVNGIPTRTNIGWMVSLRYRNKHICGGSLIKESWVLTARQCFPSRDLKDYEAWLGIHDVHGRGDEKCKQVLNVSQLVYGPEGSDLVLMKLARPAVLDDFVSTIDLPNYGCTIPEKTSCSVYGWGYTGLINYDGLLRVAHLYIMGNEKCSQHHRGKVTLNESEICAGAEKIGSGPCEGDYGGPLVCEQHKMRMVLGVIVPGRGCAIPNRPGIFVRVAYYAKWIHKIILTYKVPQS
pEC50: −log10 of the molar value.
metricName: pEC50

binder	metricName	testValue
HC 10/SLC 6 (antibody) chain 1: GQGTLVTVSSASTKGPSVFPQPVLHQPPAMSSALGTTIRLTCTLRNDHDIGVYSVYWYQQRPGHPPRFLLRYFSQSDKSQGPQVPPRFSGSKDVARNRGYLSISELQPEDEAMYYCAMGARSRCWPRGFQSKHNSVTHVFGSGTQLTVLSQPKATPSVTLFPPSSEELQANKATLVCLMNDFYPGILTVTWKADGTPITQGVEMTTPSKQSNNKYAASSYLSLTPEQWRSRRSYSCQVMHEGSTVEKTVAPAECS chain 2: MSWAPVLLMLFVYCTGCGPQPVLHQPPAMSSALGTTIRLTCTLRNDHDIGVYSVYWYQQRPGHPPRFLLRYFSQSDKSQGPQVPPRFSGSKDVARNRGYLSISVTHVFGSGTQLTVLSQPKATQVQLVQ	pEC50	10.21
